Source listed as PubChem BioAssay.

# assay procedure: HepG2 cytotoxicity, primary screen, cytotoxicity control for P. falciparum antimalarial project, cell-based, ATP luminescence (AID 2303);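 also: 0% = DMSO wells and 100% = digitonin-killed cells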
# experimental conditions: HepG2 viability, 24-48 h, at 10 µM, active compounds read high
Recorded measurements of inhibition, one per entry
# unit: % | format: bare number

Solved cases (3 shown):
1) O=C(Nc1ccc(-c2cncc(NCCCN3CCCC3)c2)cc1)c1ccccc1	-1
2) O=C(Nc1ccc(S(=O)(=O)N2CCCC2)cc1)c1cc(-c2cccnc2)nc2ccc(Cl)cc12	4
3) COc1cc(NC(=O)c2cccs2)c(C(=O)NCc2ccc(C)cc2)cc1OC	3

Form field inhibition, entry COc1ccc2c(=O)c(I)c(C)[nH]c2c1 : 27

The measured inhibition associated with COc1ccc(C2CC(=O)C3=C(C2)NC(C)=C(C(=O)OC2CCCC2)C3c2cccc(O)c2)cc1OC (stereo not given) reads 8

* * *

growth inhibition listing for selected compounds.
# assay procedure: antimalarial activity against Dd2 strain (AID 2302);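 also: 0% = DMSO untreated growth and 100% = chloroquine plus artemisinin killed control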
# experimental conditions: P. falciparum Dd2 in RBCs, LDH growth readout, 72 h; at 2 µM; active compounds read high
Quick reminder: number only, in %, skip the unit.

1. O=C(/C=C/c1ccc(Cl)c(Cl)c1)NCCCCCN1CCCC(c2c[nH]c3ccccc23)C1 (stereo not given)	22
2. COc1ccc(S(=O)(=O)N(CC(=O)NN=C(C)c2cccs2)c2cc(C)cc(C)c2)cc1OC	43
3. CN(c1ccc2c(c1)nc(Nc1cc(C(C)(C)C)on1)n2C)c1ccnc(Nc2ccc(CS(C)(=O)=O)cc2)n1	13
4. COc1ccc(CNC2Cc3ccccc3C2)cc1-c1ccc(S(=O)(=O)NCc2cccnc2)s1	18
5. COc1cc(Cc2cnc(N)nc2N)cc(OCCCc2cc(OCc3ccccc3)no2)c1OC	4
6. CCOC(=O)c1ccc(NCc2ccccn2)cc1	-2

Now for the compound whose growth inhibition we want.
Noted for COc1ccc(F)cc1-c1ccccc1CNC(=O)c1cnn(-c2ccc([N+](=O)[O-])cc2)c1C(F)(F)F : its growth inhibition reads 75

* * *

# target system: Calcium-dependent protein kinase 4 (Plasmodium falciparum (isolate 3D7)) (UniProt Q8IBS5)
# Sequence (Q8IBS5 whole entry, looked up): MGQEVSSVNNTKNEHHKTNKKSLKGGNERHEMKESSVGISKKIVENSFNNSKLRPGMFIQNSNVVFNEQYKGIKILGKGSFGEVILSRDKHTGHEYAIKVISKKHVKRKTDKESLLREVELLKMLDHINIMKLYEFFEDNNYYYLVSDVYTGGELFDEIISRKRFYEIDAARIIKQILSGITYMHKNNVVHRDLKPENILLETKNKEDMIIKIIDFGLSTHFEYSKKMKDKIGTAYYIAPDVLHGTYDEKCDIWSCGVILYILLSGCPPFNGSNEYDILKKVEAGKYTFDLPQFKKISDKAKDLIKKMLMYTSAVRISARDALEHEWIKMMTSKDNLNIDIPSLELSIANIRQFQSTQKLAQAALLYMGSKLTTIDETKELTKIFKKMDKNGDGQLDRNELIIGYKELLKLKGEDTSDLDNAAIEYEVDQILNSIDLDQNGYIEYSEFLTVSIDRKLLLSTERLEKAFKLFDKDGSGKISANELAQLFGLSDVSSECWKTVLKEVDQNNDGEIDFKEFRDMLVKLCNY
# assay procedure: PfCDPK4 kinase inhibitors, biochemical, TCAMS library (AID 1159588)
# experimental conditions: recombinant PfCDPK4, Kinase-Glo ATP depletion luminescence
Results with a measured potency or affinity are listed apart. Active and inactive are the calls of the source. The limit is not given here; nearly all actives have IC50 up to about 0.91 µM.
metric: outcome

Sample answers from the record:
1. Cc1cccc2[nH]c(-c3cccc(-c4ccc(NC(=O)NC(C)C)cc4)c3)nc12	inactive
2. NC1CCN(Cc2ccc(-c3ccc(-c4nc5ccccc5[nH]4)cc3)cc2)C1 (centres undefined)	inactive
3. Cc1cc(OCCCN=C(N)c2ccc3ccccc3c2)c(C(C)C)cc1Cl	inactive
4. COc1ccc(NC(=O)[C@H](CC(C)C)Nc2cc(C)nc(NCCc3cccs3)n2)cc1	inactive
5. CCN(CC)CCN(Cc1ccc(-c2ccc(C(F)(F)F)cc2)cc1)C(=O)Cn1c(CCc2ccc(F)c(F)c2)nc(=O)c2ccccc21	inactive
6. CC(C)C[C@H](NC(=O)c1ccc(OCCN2CCOCC2)cc1)C(=O)N[C@H](/C=N/N1CCN(C)C1=O)CCc1ccccc1	inactive
7. CCc1nc2c(cnn2CC)c(NC2CCOCC2)c1CNC(=O)N1CCOCC1	inactive
8. O=C(CCn1c2ccccc2c2ccccc21)NN=Cc1ccco1	inactive

Per the reported Calcium-dependent protein kinase 4 (Plasmodium falciparum (isolate 3D7)) (UniProt Q8IBS5) data, CCc1cn2c3c(cc(C(=O)N[C@@H](Cc4ccccc4)[C@H](O)CN[C@@H](C)CC)cc13)N(C)S(=O)(=O)CC2 has outcome of inactive
